Examples of molecules with documented zone of inhibition at 100 µg/mL follow.
Tested on: Pseudomonas aeruginosa
Test: Antibacterial activity against Pseudomonas aeruginosa minced cow meet at 100 ug/ml after 24 hr by agar well diffusion method
Format: functional
Details: read-out: IZ
PROPERTY: zone of inhibition at 100 µg/mL (mm)

[[record]]
molecule = "Cc1nn(-c2ccccc2)c2nc(-n3nc(N)c(C#N)c3-c3ccc(Cl)cc3)nc(-c3ccc(Cl)cc3)c12"
unit_spec = "mm"
observed_value = 9

[[record]]
molecule = "Cc1nn(-c2ccccc2)c2c1C(c1ccc(Cl)cc1)n1c(s/c(=C\\c3ccc(C#N)cc3)c1=O)=N2 (stereo not given)"
unit_spec = "mm"
observed_value = 18

[[record]]
molecule = "Cc1nn(-c2ccccc2)c2nc(S)nc(-c3cccs3)c12"
unit_spec = "mm"
observed_value = 16

[[record]]
molecule = "Cc1nn(-c2ccccc2)c2nc(SCC(=O)Cl)nc(-c3ccc(Cl)cc3)c12"
unit_spec = "mm"
observed_value = 22

[[record]]
molecule = "COc1ccc(C(=O)CSc2nc(-c3ccc(Cl)cc3)c3c(C)nn(-c4ccccc4)c3n2)cc1"
unit_spec = "mm"
observed_value = 18

[[record]]
molecule = "Cc1nn(-c2ccccc2)c2nc(-n3[nH]c(=O)c(C#N)c3-c3cccs3)nc(-c3ccc(Cl)cc3)c12"
unit_spec = "mm"
observed_value = 14

[[record]]
molecule = "Cc1nn(-c2ccccc2)c2nc(S)nc(-c3ccc(Cl)cc3)c12"
unit_spec = "mm"
observed_value = 24

[[record]]
molecule = "Cc1nn(-c2ccccc2)c2c1c(-c1ccc(Cl)cc1)nc1nncn12"
unit_spec = "mm"
observed_value = 12

[[record]]
molecule = "Cc1nn(-c2ccccc2)c2nc(NN)nc(-c3ccc(Cl)cc3)c12"
unit_spec = "mm"
observed_value = 16

[[record]]
molecule = "Cc1nn(-c2ccccc2)c2nc(-n3[nH]c(=O)c(C#N)c3-c3ccc(Cl)cc3)nc(-c3ccc(Cl)cc3)c12"
unit_spec = "mm"
observed_value = 14


* * *

Test system: Staphylococcus aureus
Experiment: Antibacterial activity against Staphylococcus aureus isolated from minced cow meet at 100 ug/ml after 24 hr by agar well diffusion method
Type: functional
Settings: read-out: IZ
PROPERTY: zone of inhibition at 100 µg/mL (mm)

[[record]]
molecule = "COc1ccc(C(=O)CSc2nc(-c3ccc(Cl)cc3)c3c(C)nn(-c4ccccc4)c3n2)cc1"
property = "zone of inhibition at 100 µg/mL"
unit_spec = "mm"
observed_value = 16

[[record]]
molecule = "Cc1nn(-c2ccccc2)c2nc(NN)nc(-c3ccc(Cl)cc3)c12"
property = "zone of inhibition at 100 µg/mL"
unit_spec = "mm"
observed_value = 16

[[record]]
molecule = "Cc1nn(-c2ccccc2)c2nc(S)nc(-c3ccc(Cl)cc3)c12"
property = "zone of inhibition at 100 µg/mL"
unit_spec = "mm"
observed_value = 18

[[record]]
molecule = "Cc1nn(-c2ccccc2)c2nc(S)nc(-c3cccs3)c12"
property = "zone of inhibition at 100 µg/mL"
unit_spec = "mm"
observed_value = 14

[[record]]
molecule = "Cc1nn(-c2ccccc2)c2nc(-n3[nH]c(=O)c(C#N)c3-c3ccc(Cl)cc3)nc(-c3ccc(Cl)cc3)c12"
property = "zone of inhibition at 100 µg/mL"
unit_spec = "mm"
observed_value = 0

[[record]]
molecule = "Cc1nn(-c2ccccc2)c2nc(-n3nc(N)c(C#N)c3-c3ccc(Cl)cc3)nc(-c3ccc(Cl)cc3)c12"
property = "zone of inhibition at 100 µg/mL"
unit_spec = "mm"
observed_value = 12

[[record]]
molecule = "Cc1nn(-c2ccccc2)c2nc(SCC(=O)Cl)nc(-c3ccc(Cl)cc3)c12"
property = "zone of inhibition at 100 µg/mL"
unit_spec = "mm"
observed_value = 14

[[record]]
molecule = "Cc1nn(-c2ccccc2)c2c1C(c1ccc(Cl)cc1)n1c(s/c(=C\\c3ccc(C#N)cc3)c1=O)=N2 (stereo not given)"
property = "zone of inhibition at 100 µg/mL"
unit_spec = "mm"
observed_value = 28

[[record]]
molecule = "Cc1nn(-c2ccccc2)c2nc(-n3[nH]c(=O)c(C#N)c3-c3cccs3)nc(-c3ccc(Cl)cc3)c12"
property = "zone of inhibition at 100 µg/mL"
unit_spec = "mm"
observed_value = 14

[[record]]
molecule = "Cc1nn(-c2ccccc2)c2c1c(-c1ccc(Cl)cc1)nc1nncn12"
property = "zone of inhibition at 100 µg/mL"
unit_spec = "mm"
observed_value = 14


* * *

Examples of compounds with documented zone of inhibition at 100 µg/mL follow.
System: Aspergillus flavus
Assay: Antifungal activity against Aspergillus flavus at 100 ug/ml after 48 to 72 hr by agar well diffusion method
Format: functional
Conditions: read-out: IZ
PROPERTY: zone of inhibition at 100 µg/mL (mm)

[[record]]
compound = "Cc1nn(-c2ccccc2)c2nc(S)nc(-c3ccc(Cl)cc3)c12"
system_tested = "Aspergillus flavus"
unit_spec = "mm"
observed_value = 0

[[record]]
compound = "Cc1nn(-c2ccccc2)c2nc(S)nc(-c3cccs3)c12"
system_tested = "Aspergillus flavus"
unit_spec = "mm"
observed_value = 10

[[record]]
compound = "Cc1nn(-c2ccccc2)c2nc(SCC(=O)Cl)nc(-c3ccc(Cl)cc3)c12"
system_tested = "Aspergillus flavus"
unit_spec = "mm"
observed_value = 9

[[record]]
compound = "Cc1nn(-c2ccccc2)c2nc(-n3nc(N)c(C#N)c3-c3ccc(Cl)cc3)nc(-c3ccc(Cl)cc3)c12"
system_tested = "Aspergillus flavus"
unit_spec = "mm"
observed_value = 0

[[record]]
compound = "Cc1nn(-c2ccccc2)c2nc(-n3[nH]c(=O)c(C#N)c3-c3cccs3)nc(-c3ccc(Cl)cc3)c12"
system_tested = "Aspergillus flavus"
unit_spec = "mm"
observed_value = 12

[[record]]
compound = "Cc1nn(-c2ccccc2)c2c1C(c1ccc(Cl)cc1)n1c(s/c(=C\\c3ccc(C#N)cc3)c1=O)=N2 (stereo not given)"
system_tested = "Aspergillus flavus"
unit_spec = "mm"
observed_value = 8

[[record]]
compound = "Cc1nn(-c2ccccc2)c2c1c(-c1ccc(Cl)cc1)nc1nncn12"
system_tested = "Aspergillus flavus"
unit_spec = "mm"
observed_value = 0

[[record]]
compound = "COc1ccc(C(=O)CSc2nc(-c3ccc(Cl)cc3)c3c(C)nn(-c4ccccc4)c3n2)cc1"
system_tested = "Aspergillus flavus"
unit_spec = "mm"
observed_value = 12

[[record]]
compound = "Cc1nn(-c2ccccc2)c2nc(NN)nc(-c3ccc(Cl)cc3)c12"
system_tested = "Aspergillus flavus"
unit_spec = "mm"
observed_value = 0

[[record]]
compound = "Cc1nn(-c2ccccc2)c2nc(-n3[nH]c(=O)c(C#N)c3-c3ccc(Cl)cc3)nc(-c3ccc(Cl)cc3)c12"
system_tested = "Aspergillus flavus"
unit_spec = "mm"
observed_value = 12


* * *

Test system: Candida albicans
Experiment: Antifungal activity against Candida albicans at 100 ug/ml after 48 to 72 hr by agar well diffusion method
Format: functional
Conditions: read-out: IZ
Examples of compounds with documented zone of inhibition at 100 µg/mL follow.
PROPERTY: zone of inhibition at 100 µg/mL (mm)

[[record]]
compound = "Cc1nn(-c2ccccc2)c2c1C(c1ccc(Cl)cc1)n1c(s/c(=C\\c3ccc(C#N)cc3)c1=O)=N2 (stereo not given)"
observed_value = 9

[[record]]
compound = "Cc1nn(-c2ccccc2)c2nc(SCC(=O)Cl)nc(-c3ccc(Cl)cc3)c12"
observed_value = 8

[[record]]
compound = "Cc1nn(-c2ccccc2)c2nc(S)nc(-c3cccs3)c12"
observed_value = 10

[[record]]
compound = "Cc1nn(-c2ccccc2)c2nc(NN)nc(-c3ccc(Cl)cc3)c12"
observed_value = 16

[[record]]
compound = "COc1ccc(C(=O)CSc2nc(-c3ccc(Cl)cc3)c3c(C)nn(-c4ccccc4)c3n2)cc1"
observed_value = 26


* * *

Examples of molecules with documented zone of inhibition at 100 µg/mL follow.
System: Bacillus cereus
Assay: Antibacterial activity against Bacillus cereus at 100 ug/ml after 24 hr by agar well diffusion method
Assay type: functional
Conditions: read-out: IZ
PROPERTY: zone of inhibition at 100 µg/mL (mm)

[[record]]
smiles_str = "Cc1nn(-c2ccccc2)c2nc(-n3nc(N)c(C#N)c3-c3ccc(Cl)cc3)nc(-c3ccc(Cl)cc3)c12"
observed_value = 12

[[record]]
smiles_str = "Cc1nn(-c2ccccc2)c2c1c(-c1ccc(Cl)cc1)nc1nncn12"
observed_value = 22

[[record]]
smiles_str = "Cc1nn(-c2ccccc2)c2nc(SCC(=O)Cl)nc(-c3ccc(Cl)cc3)c12"
observed_value = 10


Where these numbers come from: ChEMBL document CHEMBL3045647
